# STUDY SYSTEM: T1, SPOP MATH domain (SPOP^MATH; residues 28-166) (human), O43791
# T1 chain: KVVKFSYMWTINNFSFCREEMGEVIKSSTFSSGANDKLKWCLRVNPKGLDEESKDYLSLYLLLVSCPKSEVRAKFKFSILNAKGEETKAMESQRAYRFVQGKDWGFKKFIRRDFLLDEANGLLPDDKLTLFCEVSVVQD
# ASSAY PROTOCOL: FP
# CONDITION INFO: modification not given
PROPERTY: IC50

q: Recorded IC50 for AEKPLQVAAVAAAVPRT […] , please?
a: 2110 µM
